System: LOC_OS01G39600-cb002;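 also: purified Escherichia coli-expressed rice kinase domain construct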
Experiment: thermal shift delta Tm vs DMSO control; higher = stronger stabilization (binding)
Conditions: 12.5 µM; protein concentration 2 µM
Binning scheme for thermal shift delta Tm: LOW (below -0.02 °C), MID (-0.02 °C to below 3 °C), HIGH (3 °C or more)

Past entries and their recorded results:
{"compound": "C=CC(=O)Nc1cccc(Oc2nc(Nc3ccc(N4CCN(C)CC4)cc3OC)ncc2Cl)c1", "classification": "MID"}
{"compound": "COc1cc2ncnc(Sc3nnc(C)s3)c2cc1OC", "classification": "LOW"}
{"compound": "Cn1cc(C2=C(c3ccc(Cl)cc3Cl)C(=O)NC2=O)c2ccccc21", "classification": "HIGH"}
{"compound": "CNS(=O)(=O)Nc1nccc(Cc2c(C)c3ccc(Oc4ncccn4)cc3oc2=O)c1F", "classification": "LOW"}
{"compound": "Cc1c[nH]c2nc(Nc3ccc(N4CCN(C)CC4)c(F)c3)nc(-c3cccc(CC#N)c3)c12", "classification": "HIGH"}

Q. Into which category would you place CCn1c2ccccc2c2cc(Nc3ccnc(NCCCN4CCOCC4)n3)ccc21 ?
A. LOW

Q. Into which category would you place CCCCNc1ncc2c(-c3ccc(CN4CCN(C)CC4)cc3)cn([C@H]3CC[C@H](O)CC3)c2n1 ?
A. HIGH

Q. Into which category would you place C[C@@H](Oc1cc(-n2cnc3ccc(CN4CCN(C)CC4)cc32)sc1C(N)=O)c1ccccc1C(F)(F)F ?
A. MID

Q. Into which category would you place CN(C)C[C@@H]1CCn2cc(c3ccccc32)C2=C(C(=O)NC2=O)c2cn(c3ccccc23)CCO1 ?
A. MID
